Tested on: Plasmodium berghei
Test: Screen against P. berghei liver stage (PbLuc), transformed with Luciferase, at 2uM
Type: functional, HepG2
Settings: tested at 2 uM
In all, about 68,000 compounds went through this assay and about 2,700 (4%) showed an effect of 50% or more. This excerpt belongs to a sample that is enriched for strong results.
measured metric: INHIBITION (%)
Give the value in % but do not write % after it.

[[record]]
molecule = "O=C1CC(NS(=O)(=O)c2ccc(F)c(Cl)c2)CN1 (stereo not given)"
quantity_unit = "%"
test_value = -15.08


### Prompt For CCS(=O)(=O)N1CCOC2(CCCN(c3ccccn3)C2)C1 (stereo not given) , write its INHIBITION.
### Response 29.45

### Prompt For `Cc1ccc(NC(=O)N(CCO)CCO)c(OCc2ccccc2)c1` , write its INHIBITION.
### Response 68.73

### Prompt For `CC(C)CNC(=O)c1ccc2c(=O)n(-c3ccccc3)cnc2c1` , write its INHIBITION.
### Response 43.75

### Prompt For `Cc1ccc(CN2Cc3c(C(=O)N4CCCC4)nn(C)c3C2)s1` , write its INHIBITION.
### Response -64.97

### Prompt For `CC(=O)NCCNC(=O)Nc1ccc(C)cc1OCc1ccccc1` , write its INHIBITION.
### Response 3.22

### Prompt For Cc1cccc(OCCCNC(=O)NC(C)c2nncn2C)c1 (stereo not given) , write its INHIBITION.
### Response -7.01

### Prompt For `CN(C)C(=O)c1cn[nH]c1C1(C)CCN(c2ncccn2)CC1` , write its INHIBITION.
### Response -16.2

### Prompt For `CCCS(=O)(=O)N1CCC2(CC1)CN(c1ccccn1)CCO2` , write its INHIBITION.
### Response 72.41

### Prompt For O=S(=O)(c1c(Cl)nc2sccn12)N1CCCC2(CCNC2)C1 (stereo not given) , write its INHIBITION.
### Response 12.83

---

Tested on: Plasmodium berghei
Experiment: Screen against P. berghei liver stage (PbLuc), transformed with Luciferase, at 2uM
Format: functional, HepG2
Conditions: tested at 2 uM
The campaign covered roughly 68,000 compounds. About 2,700 (4%) showed an effect of 50% or more. The list comes from a sample in which strong results are over-represented; it also holds close analogues and randomly drawn compounds.
Values of INHIBITION greater than or equal to 20% map to t; values below map to f.

Worked examples follow.
[[record]]
compound = "CCc1cccc(NC(=O)CCC(=O)N(C)Cc2nc(C)c[nH]2)c1"
label_class = "f"

[[record]]
compound = "CN(Cc1cccc2ncccc12)C(=O)CCC(F)(F)F"
label_class = "f"

[[record]]
compound = "COCCNC(=O)Cn1cc(NC(=O)c2ccc(C(C)(C)C)cc2)cn1"
label_class = "f"

[[record]]
compound = "Cc1ccc(S(=O)(=O)NC(=O)CCOCc2ccccc2)s1"
label_class = "t"

[[record]]
compound = "CN(C(=O)CCC(F)(F)F)c1cccc2ncccc12"
label_class = "t"


### Prompt Please tell me: is the compound `Cn1cc(-n2cc3nc(N4CCOCC4)[nH]cc-3c2=O)cn1` at or over 20% in terms of INHIBITION?
### Response f

### Prompt Please tell me: is the compound `CCn1c(CC2CCN(S(=O)(=O)N3CCCCC3)CC2)nn(C)c1=O` at or over 20% in terms of INHIBITION?
### Response t

### Prompt Please tell me: is the compound `O=C(CCNc1ncccn1)NCc1cccc(OC(F)F)c1` at or over 20% in terms of INHIBITION?
### Response t

### Prompt Please tell me: is the compound `COc1cccc(OCC(=O)NS(=O)(=O)c2cccnc2)c1` at or over 20% in terms of INHIBITION?
### Response f

### Prompt Please tell me: is the compound `Cc1cc(F)ccc1C(=O)N1C[C@@H]2COC[C@]2(CN(C)C)C1` at or over 20% in terms of INHIBITION?
### Response t

---

Test system: Plasmodium berghei
Assay: Screen against P. berghei liver stage (PbLuc), transformed with Luciferase, at 2uM
Assay type: functional, HepG2
Conditions: tested at 2 uM
The whole screen tested about 68,000 compounds, of which about 2,700 (4%) showed an effect of 50% or more. What follows is part of a selection rich in strong results, with near analogues and random picks from the rest.
In this section, each of the compounds is paired with its reported INHIBITION.
Give the value in % but do not write % after it.

Worked examples follow.
[[record]]
compound = "Cc1cc(C)n(Cc2cc(C(=O)N3CCCC3c3ccccn3)n[nH]2)n1 (stereo not given)"
measured_metric = "INHIBITION"
test_value = -15.08

[[record]]
compound = "COCC1CN(C(=O)Cc2ccccn2)Cc2ncnn2C1 (stereo not given)"
measured_metric = "INHIBITION"
test_value = -54.16

[[record]]
compound = "O=C(Cc1csc(-c2ccco2)n1)N1CCN(CCO)CC1"
measured_metric = "INHIBITION"
test_value = -27.91

[[record]]
compound = "CN(C)Cc1nnc(C2CCCN(c3nccc4ccccc34)C2)n1C (stereo not given)"
measured_metric = "INHIBITION"
test_value = 63.01

[[record]]
compound = "Cc1nnc(CN(C)CCOc2cccc(Cl)c2)o1"
measured_metric = "INHIBITION"
test_value = 70.83

[[record]]
compound = "Cc1cccc(NC(=O)CCC(=O)NCC(=O)c2ccccc2F)c1"
measured_metric = "INHIBITION"
test_value = 22.31

[[record]]
compound = "CS(=O)(=O)CCN1CCCC1c1noc(C2CC2)n1 (stereo not given)"
measured_metric = "INHIBITION"
test_value = 21.83

[[record]]
compound = "Cc1nn(C)c(Oc2ccccc2)c1CNC1CCOc2ccccc21 (stereo not given)"
measured_metric = "INHIBITION"
test_value = -15.64


### Prompt For `CCc1ncc2c(n1)CN(Cc1nnc(Cc3ccccc3)o1)CC2` , write its INHIBITION.
### Response -11.33

### Prompt For `O=C(Cn1cccnc1=O)NCCc1ccc2c(c1)OCCO2` , write its INHIBITION.
### Response 0.9

---

In this section, each of the compounds is paired with its reported INHIBITION.
Tested on: Plasmodium berghei
Experiment: Screen against P. berghei liver stage (PbLuc), transformed with Luciferase, at 2uM
Type: functional, HepG2
Details: tested at 2 uM
Among all 68,000 compounds or so, about 2,700 (4%) showed an effect of 50% or more. The list comes from a sample in which strong results are over-represented; it also holds close analogues and randomly drawn compounds.
Give the value in % but do not write % after it.

Worked examples follow.
[[record]]
compound = "O=C(CCC1CCCC1)N1CCC(c2cc3ncccc3c(O)n2)CC1"
target_or_system = "Plasmodium berghei"
test_value = 22.39

[[record]]
compound = "CCN1C(=O)CCCC12CCCN(C(=O)c1ccoc1C)C2 (stereo not given)"
target_or_system = "Plasmodium berghei"
test_value = 50.17

[[record]]
compound = "CCOC(=O)CC(C)Nc1nc(C(C)(C)C)nc2c1cnn2C (stereo not given)"
target_or_system = "Plasmodium berghei"
test_value = -70.6


### Prompt For `COC(=O)[C@H](CSC)Nc1nc(C2CCCC2)nc2c1cnn2C` , write its INHIBITION.
### Response 43.28

### Prompt For CN1CCCC(CCC(=O)NCCc2nnc(N)s2)C1 (stereo not given) , write its INHIBITION.
### Response 49.25

### Prompt For c1ncn(CC2CCCCN2Cc2noc(C3CC3)n2)n1 (stereo not given) , write its INHIBITION.
### Response 62.13

### Prompt For `CSc1nnc(C2CCN(C(=O)N3CCCC3)CC2)n1C` , write its INHIBITION.
### Response 5.83

### Prompt For `CCOc1cc(CNC(=O)CNC(=O)CC2CCCCC2)ccn1` , write its INHIBITION.
### Response 9.29

### Prompt For `COc1cccc(CN(Cc2ccco2)Cc2[nH]cnc2C)c1` , write its INHIBITION.
### Response 28.07

### Prompt For COc1ccc(CCC(C)Nc2cccc(SC)c2)cc1 (stereo not given) , write its INHIBITION.
### Response 2.5

---

Tested on: Plasmodium berghei
Experiment: Screen against P. berghei liver stage (PbLuc), transformed with Luciferase, at 2uM
Type: functional, HepG2
Conditions: tested at 2 uM
Among all 68,000 compounds or so, about 2,700 (4%) showed an effect of 50% or more. This excerpt belongs to a sample that is enriched for strong results.
measured metric: INHIBITION (%)
Give the value in % but do not write % after it.

[[record]]
molecule = "O=C(Nc1ccc2c(c1)OCO2)N1CCN(CCn2cccn2)CC1"
measured_metric = "INHIBITION"
test_value = 43.57

[[record]]
molecule = "CCn1cnnc1CNC(=O)N(C)Cc1cccc(OC(F)F)c1"
measured_metric = "INHIBITION"
test_value = 64.16

[[record]]
molecule = "O=C(NC[C@]1(O)CCN(Cc2ccsc2)C[C@H]1O)c1c[nH]cn1"
measured_metric = "INHIBITION"
test_value = 69.45


Switching to the query record.
### Prompt For COc1ccc(C2CCCN2C(=O)NCCn2ccnc2)cc1 (centres undefined) , write its INHIBITION.
### Response 26.61
